Numbers sourced from patent US20220259593A1.

Below: a set of entries, each annotated with reported Mean relative activity.
test system: K562 CRISPRi cells; assay: Constant region variant library pooled growth screen, K562; assay type: cell-based, human; settings: sgRNA constant region variants; activity relative to the un-modified constant region cr995
Response field accepts a number only; no unit should be typed.

# example entries with known answers
- cr938 (nucleic acid, listed as DNA, chemistry not fully specified) guide: GTTTAAGAGCTAAGCTGGAAACAGCATAGCAAGTTTAAATAAGGCTGGTCCGTTATCAACTTGAAAAAGTGGCACCGAGTCGGTGCT: 0.9596
- cr906 (nucleic acid, listed as DNA, chemistry not fully specified) guide: GTTTAAGAGCTAAGCTGGAAACAGCATAGCAAGTTTAAATAAGGCTAGTCCGTTATCAACTTGAGAAAGTGGCAGCGAGTCGCTGCT: 0.9817

Which Mean relative activity value is on record for cr855 (nucleic acid, listed as DNA, chemistry not fully specified) guide: GTTTAAGAGCTAAGCTGGAAACAGCATAGCAAGTTTAAATAAGGCCAGTCCGTTCTCAACTTGACAAAGTGGCACCGAGTCGGTGCT ?
0.9849

Query (molecule): cr646 (nucleic acid, listed as DNA, chemistry not fully specified) guide: GTTTAAGAGCTAAGCTGGAAACAGCATAGCAAGTTTAAATAAGGCTAGTCCGTTATCAAATTGAAAAATTGGCTCCGAGTCGGAGCT ; field requested: Mean relative activity
0.962

Given the entry cr306 (nucleic acid, listed as DNA, chemistry not fully specified) guide: GTTTAAGAGCTAAGCTGGAAACAGCATAGCAAGTTTAAATAAGGCTTGTCCGTTATCAACTTGAAAAAGTGGCACCGTGTCGGTGCT , report its measured Mean relative activity.
0.9647

GET /values?readout=Mean relative activity&item= cr142 (nucleic acid, listed as DNA, chemistry not fully specified) guide: GTTTAAGAGCTAAGCTGGAAACAGCATAGCAAGTTTAAATAAGGCTAGTCCGTTATCAACTTGAAAAAGTGGCACCTAGTAGGTGCT
0.9406

Query: Mean relative activity; subject: cr918 (nucleic acid, listed as DNA, chemistry not fully specified) guide: GTTTAAGAGCTAAGCTGGAAACAGCATAGCAAGTTTAAATAAGGCTAGTCCGTTATCATCTTGAAAAAGAGGCACCGAGTCGGTGCT
0.982

Suppose we examine the molecule cr752 (nucleic acid, listed as DNA, chemistry not fully specified) guide: GTTTAAGAGCTAAGCTGGAAACAGCATAGCAAGTTTAAATAAGGCTAGTCCGTTATCAACTTGATAAAGTGGCACCGAGTCGGTGCG ; what Mean relative activity value has been reported?
0.9196

Entry cr640 (nucleic acid, listed as DNA, chemistry not fully specified) guide: GTTTAAGAGCTAAGCTGGAAACAGCATAGCAAGTTTAAATAAGGCTAGTCCGTTATCAACTTGAAAAAGTGGCCCAGAGTCTGGGCT has what Mean relative activity?
0.9186

Which value of Mean relative activity has been reported for cr147 (nucleic acid, listed as DNA, chemistry not fully specified) guide: GTTTAAGAGCTAAGCTGGAAACAGCATAGCAAGTTTAAATAAGGCTAGTCCGTTATCAACTTATAAAAGTGGCACCGACTCGGTGCT in the records?
0.9753

Any idea what Mean relative activity was measured for cr953 (nucleic acid, listed as DNA, chemistry not fully specified) guide: GTTTAAGAGCTAAGCTGGAAACAGCATAGCAAGTTTAAATAAGGCTAGTCCGTTATCAACTTGAAAAAGTGGCACCGCGTCGGTGCT ?
0.9337

Sample cr367 (nucleic acid, listed as DNA, chemistry not fully specified) guide: GTTTAAGAGCTAAGCTGGAAACAGCATAGCAAGTTTAAATAAGACTAGTTCGTTATCAACTCGAAAGAGTGGTACCGAGTCGGTACT — what was its Mean relative activity?
0.8998

What Mean relative activity value was documented for this molecule, cr777 (nucleic acid, listed as DNA, chemistry not fully specified) guide: GTTTAAGAGCTAAGCTGGAAACAGCATAGCAAGTTTAAATAAGGCTAGTCCGGTATCAACTTGAAAAAGTGGCACCGAGTCGGTGCT ?
0.9022

Entry cr556 (nucleic acid, listed as DNA, chemistry not fully specified) guide: GTTTAAGAGCTAAGCTGGAAACAGCATAGCAAGTTTAAATAAGGCTAGTCCGTTATCAACTCGAAAGAGTGATACCGAGTCGGTATT : reported Mean relative activity = ?
0.9785
